B1: KRT33B (parent)
chain: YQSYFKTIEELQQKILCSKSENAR

# Variants of: B1
# assay-method-text: protein stability index of a GFP-peptide fusion (GPS, HEK-293T) (PSI 1-6); higher = more stable;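 note: lentivirally expressed fusions sorted by FACS into six bins by GFP to DsRed ratio, PSI derived from sequencing read proportions per bin multiplied by bin number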
# test-conditions: c terminus: a fixed tail appended
Quick list: protein stability index per entry.
Format: numeric value only, no unit, no commentary.

E9M | 1.78
F5W | 2.44
S3E | 2.42
N22Q | 2.19
K6V | 2.41
N22D | 1.82
R24C | 2.4
T7I | 1.97

Attention now turns to another entry.
Prompt line: Data request, read-out protein stability index, for E10G
Response line: 2.6
